target: Ba/F3 L858R/T790M/C797S EGFR triple mutant cell line (Homo sapiens, UniProt P00533, T790M/C797S/L858R, cells depend on it); assay: Cell proliferation inhibition experiment (CellTiter-Glo), Ba/F3 L858R/T790M/C797S; format: cell-based; details: 72 hours, Cell Titer-Glo, read-out: Ba/F3 (L858R/T790M/C797S) IC50
Sequence (P00533 whole entry T790M/C797S/L858R): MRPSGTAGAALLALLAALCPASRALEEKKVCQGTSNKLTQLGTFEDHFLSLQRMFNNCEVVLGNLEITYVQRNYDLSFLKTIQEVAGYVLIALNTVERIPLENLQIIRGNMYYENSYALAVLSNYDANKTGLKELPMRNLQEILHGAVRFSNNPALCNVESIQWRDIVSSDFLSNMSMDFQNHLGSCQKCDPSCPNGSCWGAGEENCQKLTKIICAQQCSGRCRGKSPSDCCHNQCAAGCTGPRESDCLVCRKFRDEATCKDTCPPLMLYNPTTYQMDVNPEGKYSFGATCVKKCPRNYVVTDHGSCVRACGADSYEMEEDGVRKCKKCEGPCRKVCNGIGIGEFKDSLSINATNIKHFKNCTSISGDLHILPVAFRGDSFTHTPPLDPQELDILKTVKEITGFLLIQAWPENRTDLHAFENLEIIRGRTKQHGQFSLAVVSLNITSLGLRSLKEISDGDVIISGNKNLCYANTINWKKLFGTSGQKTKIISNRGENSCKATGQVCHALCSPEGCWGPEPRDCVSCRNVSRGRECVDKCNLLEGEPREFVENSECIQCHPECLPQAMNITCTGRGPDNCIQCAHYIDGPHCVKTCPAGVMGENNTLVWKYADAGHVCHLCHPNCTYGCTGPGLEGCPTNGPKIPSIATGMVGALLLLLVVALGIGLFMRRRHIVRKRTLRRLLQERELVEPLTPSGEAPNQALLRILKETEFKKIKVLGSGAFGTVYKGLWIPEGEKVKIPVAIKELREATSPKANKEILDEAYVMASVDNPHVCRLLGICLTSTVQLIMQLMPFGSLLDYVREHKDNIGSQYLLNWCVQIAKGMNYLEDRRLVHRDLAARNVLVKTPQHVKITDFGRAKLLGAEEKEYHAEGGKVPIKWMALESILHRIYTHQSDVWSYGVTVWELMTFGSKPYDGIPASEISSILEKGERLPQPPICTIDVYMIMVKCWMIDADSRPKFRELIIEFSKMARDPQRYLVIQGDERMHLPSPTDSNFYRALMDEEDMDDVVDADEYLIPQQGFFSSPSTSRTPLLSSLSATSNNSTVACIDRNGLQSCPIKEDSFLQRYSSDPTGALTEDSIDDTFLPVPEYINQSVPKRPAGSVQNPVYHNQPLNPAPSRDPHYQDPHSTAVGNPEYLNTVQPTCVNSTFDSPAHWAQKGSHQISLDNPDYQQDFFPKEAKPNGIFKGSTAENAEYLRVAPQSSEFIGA
Quantity name: GI50 (nM)

Worked examples follow.
Given COc1cc(N2CCC(C)(OC)CC2)c(-c2cnn(C)c2)cc1Nc1ncc(Br)c(Nc2ccccc2P(C)(C)=O)n1 [compound 240] , state its recorded GI50.
19.2

Given Cn1cc(-c2cc(Nc3ncc(Br)c(Nc4ccc5nccnc5c4P(C)(C)=O)n3)c3c(c2N2CCOCC2)CCO3)cn1 [Compound 17] , state its recorded GI50.
2.13

Given COCCN1CCC2(CC1)CCN(c1cc(OC)c(Nc3ncc(Br)c(Nc4ccc5nccnc5c4P(C)(C)=O)n3)cc1-c1cnn(C)c1)CC2 [compound 139] , state its recorded GI50.
2.33

Given COc1cc(N2CCC(N(C)C(C)C(F)(F)F)CC2)c(-c2cnn(C)c2)cc1Nc1ncc(Br)c(Nc2ccc3nccnc3c2P(C)(C)=O)n1 (centres unmarked) [compound 173] , state its recorded GI50.
24.5

Given Cn1cc(-c2cc(Nc3ncc(Br)c(Nc4ccc5nccnc5c4P(C)(C)=O)n3)ccc2N2CCOCC2)cn1 [compound 48] , state its recorded GI50.
6.03

Given COc1cc(N2CCC(N3CCN(CCF)CC3)CC2)c(-c2cnn(C)c2)cc1Nc1ncc(Br)c(Nc2ccccc2N(C)S(=O)(=O)C2CC2)n1 [compound 209] , state its recorded GI50.
12.6

A. COc1cc(N2CCOCC2)c(-c2cnn(C)c2)cc1Nc1ncc(Br)c(Nc2cc3c(cc2P(C)(C)=O)CC3)n1 [Compound 79]
B. COc1cc(N2CCC3CCN(C)C3C2)c(-c2cnn(C)c2)cc1Nc1ncc(Br)c(Nc2ccc3nccnc3c2P(C)(C)=O)n1 (centres unmarked) [compound 168]
C. COc1cc(N2CC(C)OC(C)C2)c(-c2cnn(C)c2)cc1Nc1ncc(Br)c(Nc2cc3c(cc2P(C)(C)=O)CC3)n1 (racemic) [compound 136]
D. COc1cc(N2CCC(N3CCN(C)CC3)C(F)C2)c(-c2cnn(C)c2)cc1Nc1ncc(Br)c(Nc2ccc3nccnc3c2P(C)(C)=O)n1 (centres unmarked) [compound 189]
Arrange these molecules by their GI50, starting with the largest number. // format: requested-order list of labels
C, D, A, B
(C: 57.1 nM, D: 23.6 nM, A: 13.5 nM, B: 4.2 nM)

I. COc1cc(N2CC(C)OC(C)C2)c(-c2cnn(C)c2)cc1Nc1ncc(Br)c(Nc2cc3c(cc2P(C)(C)=O)CC3)n1 (racemic) [compound 137]
II. COc1cc(N2CCOCC2)c(-c2cncn2C)cc1Nc1ncc(Br)c(Nc2ccc3nccnc3c2P(C)(C)=O)n1 [compound 91]
III. COc1cc(N2CCN(CC3CC3)CC2)c(-c2cnn(C)c2)cc1Nc1ncc(Br)c(Nc2ccc3cncnc3c2P(C)(C)=O)n1 [compound 236]
Arrange these molecules by their GI50, starting with the largest number. // format: requested-order list of labels
II, I, III
(II: 430 nM, I: 77.8 nM, III: 12.7 nM)

----------
molecular target: L858R/T790M/C797S triple mutant EGFR (Homo sapiens, UniProt P00533, C797S/L858R/T790M); construct: purchased Signalchem; assay: Enzymology experiment in vitro (HTRF/FRET kinase activity), L858R/T790M/C797S triple mutant EGFR; format: biochemical; details: HTRF KinEASE-TK, read-out: EGFR (L858R/T790M/C797S) IC50
Sequence (P00533 25-1210 T790M/C797S/L858R): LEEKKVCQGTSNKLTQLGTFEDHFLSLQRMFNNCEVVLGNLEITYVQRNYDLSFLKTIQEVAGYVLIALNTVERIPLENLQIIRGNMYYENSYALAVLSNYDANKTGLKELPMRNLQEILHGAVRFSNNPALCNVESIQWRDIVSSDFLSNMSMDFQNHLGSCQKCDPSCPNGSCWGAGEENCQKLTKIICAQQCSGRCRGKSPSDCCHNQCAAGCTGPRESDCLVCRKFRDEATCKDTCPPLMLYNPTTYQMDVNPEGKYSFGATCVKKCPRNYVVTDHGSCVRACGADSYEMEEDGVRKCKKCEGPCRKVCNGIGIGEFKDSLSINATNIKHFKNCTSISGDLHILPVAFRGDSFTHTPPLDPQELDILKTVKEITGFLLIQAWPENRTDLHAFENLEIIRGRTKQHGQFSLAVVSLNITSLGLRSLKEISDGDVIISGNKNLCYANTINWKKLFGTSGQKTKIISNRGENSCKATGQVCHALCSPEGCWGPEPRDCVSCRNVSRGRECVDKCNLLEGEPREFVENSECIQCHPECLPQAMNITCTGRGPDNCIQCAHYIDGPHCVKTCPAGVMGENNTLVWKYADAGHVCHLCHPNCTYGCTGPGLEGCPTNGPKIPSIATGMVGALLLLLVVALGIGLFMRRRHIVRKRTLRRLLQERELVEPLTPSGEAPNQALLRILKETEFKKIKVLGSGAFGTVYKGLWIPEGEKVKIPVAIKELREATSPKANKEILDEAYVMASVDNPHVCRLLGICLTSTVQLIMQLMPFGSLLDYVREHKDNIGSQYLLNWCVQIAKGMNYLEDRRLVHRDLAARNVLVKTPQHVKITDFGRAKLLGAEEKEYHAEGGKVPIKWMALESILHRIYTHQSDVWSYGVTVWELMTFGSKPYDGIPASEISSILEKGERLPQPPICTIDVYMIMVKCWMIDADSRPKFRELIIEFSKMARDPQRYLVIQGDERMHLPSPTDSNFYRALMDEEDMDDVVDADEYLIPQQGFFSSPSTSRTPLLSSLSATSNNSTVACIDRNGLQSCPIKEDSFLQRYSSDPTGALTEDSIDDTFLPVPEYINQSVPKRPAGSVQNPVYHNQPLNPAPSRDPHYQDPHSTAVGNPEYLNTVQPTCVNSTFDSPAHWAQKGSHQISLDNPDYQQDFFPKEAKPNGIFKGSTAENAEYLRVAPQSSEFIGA
Quantity name: IC50 (nM)

Worked examples follow.
Given Cc1nc(N2CCOCC2)c(-c2cnn(C)c2)cc1Nc1ncc(Br)c(Nc2ccc3nccnc3c2P(C)(C)=O)n1 , state its recorded IC50.
0.23

Given COc1cc(N2CCOC(CO)C2)c(-c2cnn(C)c2)cc1Nc1ncc(Br)c(Nc2ccc3nccnc3c2P(C)(C)=O)n1 (stereo not drawn) , state its recorded IC50.
0.4

Given COc1cc(N2CCC(N3CCOCC3)CC2)c(-c2cnn(C)c2)cc1Nc1ncc(Br)c(Nc2ccc3nccnc3c2P(C)(C)=O)n1 [compound 210] , state its recorded IC50.
0.11

1. COc1cc(F)c(-c2cnn(C)c2)cc1Nc1ncc(Br)c(Nc2ccc3nccnc3c2P(C)(C)=O)n1
2. COc1cc(N2CCC(N3CCN(C)CC3)CC2)c(-c2cnn(C)c2)cc1Nc1ncc(Br)c(Nc2ccc3nccnc3c2P(C)(C)=O)n1
Of 1 and 2 , which carries the smaller reported IC50 figure? Answer format: the label of the selected item.
2
(2: 0.08 nM, 1: 0.33 nM)

----------
target: Ba/F3 De119/T790M/C797S EGFR triple mutant cell line (Homo sapiens, UniProt P00533, T790M/C797S, cells depend on it, form not given); assay: Cell proliferation inhibition experiment (CellTiter-Glo), Ba/F3 De119/T790M/C797S; type: cell-based; details: Ba/F3 Del19/T790M/C797S EGFR triple mutant cells, 72 hours, Cell Titer-Glo; read-out: Ba/F3 (Del19/T790M/C797S) IC50
Sequence (P00533 with tags, fused parts or gaps DEL746-750/T790M/C797S, form open): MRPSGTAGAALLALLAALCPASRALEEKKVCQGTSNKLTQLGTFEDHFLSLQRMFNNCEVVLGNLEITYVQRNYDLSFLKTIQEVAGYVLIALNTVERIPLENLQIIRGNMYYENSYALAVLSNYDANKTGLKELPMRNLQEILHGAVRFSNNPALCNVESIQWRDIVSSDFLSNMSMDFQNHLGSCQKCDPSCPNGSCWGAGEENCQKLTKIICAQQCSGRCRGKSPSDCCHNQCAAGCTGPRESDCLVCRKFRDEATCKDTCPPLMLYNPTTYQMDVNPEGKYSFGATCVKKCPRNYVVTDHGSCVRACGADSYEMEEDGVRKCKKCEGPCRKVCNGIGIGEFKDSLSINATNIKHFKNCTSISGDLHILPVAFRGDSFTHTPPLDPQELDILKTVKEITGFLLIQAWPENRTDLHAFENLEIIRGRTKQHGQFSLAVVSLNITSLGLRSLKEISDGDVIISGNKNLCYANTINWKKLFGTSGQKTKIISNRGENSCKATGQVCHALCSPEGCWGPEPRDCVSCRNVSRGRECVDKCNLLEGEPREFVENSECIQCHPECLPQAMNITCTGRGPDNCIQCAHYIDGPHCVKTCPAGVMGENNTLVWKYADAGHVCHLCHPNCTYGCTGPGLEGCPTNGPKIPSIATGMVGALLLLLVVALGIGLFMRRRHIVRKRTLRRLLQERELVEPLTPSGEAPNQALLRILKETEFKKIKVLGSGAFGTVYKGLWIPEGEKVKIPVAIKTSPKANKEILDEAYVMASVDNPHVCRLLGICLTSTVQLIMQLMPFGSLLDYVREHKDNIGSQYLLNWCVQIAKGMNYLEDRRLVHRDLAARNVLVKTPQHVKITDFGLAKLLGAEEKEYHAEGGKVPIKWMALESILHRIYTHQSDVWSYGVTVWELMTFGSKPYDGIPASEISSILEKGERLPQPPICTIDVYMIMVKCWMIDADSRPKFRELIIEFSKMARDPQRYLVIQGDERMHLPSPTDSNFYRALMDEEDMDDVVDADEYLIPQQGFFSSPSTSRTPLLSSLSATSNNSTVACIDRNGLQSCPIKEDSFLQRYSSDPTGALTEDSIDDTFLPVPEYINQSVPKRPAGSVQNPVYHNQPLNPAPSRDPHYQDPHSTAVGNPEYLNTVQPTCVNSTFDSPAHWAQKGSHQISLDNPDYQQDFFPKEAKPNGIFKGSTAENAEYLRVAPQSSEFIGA
Quantity name: GI50 (nM)

Worked examples follow.
Given COc1cc(N2CCC(N3CCN(C)CC3)CC2)c(-c2cnn(C)c2)cc1Nc1ncc(Br)c(Nc2ccccc2N(C)S(=O)(=O)C2CC2)n1 , state its recorded GI50.
4.16

Given COc1cc(N2CCC3(CCN(C)CC3)CC2)c(-c2cnn(C)c2)cc1Nc1ncc(Br)c(Nc2ccc3nccnc3c2P(C)(C)=O)n1 , state its recorded GI50.
2.87

A. COc1ccc(-c2cnn(C)c2)cc1Nc1ncc(Br)c(Nc2ccc3nccnc3c2P(C)(C)=O)n1
B. COc1cc(N2CCOCC2)c(-c2ccsc2)cc1Nc1ncc(Br)c(Nc2ccc3nccnc3c2P(C)(C)=O)n1
C. COc1nc(N(C)CCN(C)C)c(-c2cnn(C)c2)cc1Nc1ncc(Br)c(Nc2ccc3nccnc3c2P(C)(C)=O)n1
rank_up(items): orders items by reported GI50 in ascending numerical order. // format: requested-order list of labels
A, C, B
(A: 3.71 nM, C: 7.65 nM, B: 87.8 nM)

----------
target: Ba/F3 L858R/T790M/C797S EGFR triple mutant cell line (Homo sapiens, UniProt P00533, T790M/C797S/L858R, cells depend on it); assay: Cell proliferation inhibition experiment (CellTiter-Glo), Ba/F3 L858R/T790M/C797S; format: cell-based; conditions: 72 hours, Cell Titer-Glo, read-out: Ba/F3 (L858R/T790M/C797S) IC50
Where a name gives a salt, the structure may show the parent alone.
Quantity name: GI50 (µM)

Worked examples follow.
Given COc1nc(N2CCOCC2)c(-c2cnn(C)c2)cc1Nc1ncc(C)c(Nc2ccc3nccnc3c2P(C)(C)=O)n1 [compound 63] , state its recorded GI50.
0.0249

Given COc1cc(N2CCC3(CC2)CN(C)C3)c(-c2cnn(C)c2)cc1Nc1ncc(Br)c(Nc2ccc3nccnc3c2P(C)(C)=O)n1 [Compound 16, formate] , state its recorded GI50.
0.0235

Given COc1cc(N2CC3CN(CCF)CC3C2)c(-c2cnn(C)c2)cc1Nc1ncc(Br)c(Nc2ccc3nccnc3c2P(C)(C)=O)n1 (stereo not drawn) [compound 247] , state its recorded GI50.
0.00776

P. Cc1cc(Nc2ncc(Br)c(Nc3ccc4nccnc4c3P(C)(C)=O)n2)cc(-c2cnn(C)c2)c1N1CCOCC1 [compound 100]
Q. COc1cc(N2CCC(N3CCOCC3)CC2)c(-c2cnsc2)cc1Nc1ncc(Br)c(Nc2ccc3nccnc3c2P(C)(C)=O)n1 [compound 212]
R. COc1nc(N2CCOCC2)c(-c2cnn(C)c2)cc1Nc1ncc(Br)c(Nc2ccc3nccnc3c2P(C)(C)=O)n1 [Compound 7]
Arrange these compounds by their GI50, starting with the largest number. // format: requested-order list of labels
Q, R, P
(Q: 0.0251 µM, R: 0.0148 µM, P: 0.0062 µM)

----------
target: Ba/F3 De119/T790M/C797S EGFR triple mutant cell line (Homo sapiens, UniProt P00533, T790M/C797S, cells depend on it, form not given); assay: Cell proliferation inhibition experiment (CellTiter-Glo), Ba/F3 De119/T790M/C797S; type: cell-based; details: Ba/F3 Del19/T790M/C797S EGFR triple mutant cells, 72 hours, Cell Titer-Glo; read-out: Ba/F3 (Del19/T790M/C797S) IC50
Quantity name: GI50 (nM)

Worked examples follow.
Given COCCN1CCC2(CC1)CCN(c1cc(OC)c(Nc3ncc(Br)c(Nc4ccc5nccnc5c4P(C)(C)=O)n3)cc1-c1cnn(C)c1)CC2 , state its recorded GI50.
1.59

Given COc1cc(N2CCC(N3CC(C)OC(C)C3)CC2)c(-c2cnn(C)c2)cc1Nc1ncc(Br)c(Nc2ccc3nccnc3c2P(C)(C)=O)n1 (racemic) , state its recorded GI50.
4.63

Given COc1cc(N2CCC3(CC2)CN(C)CCN3C)c(-c2cnn(C)c2)cc1Nc1ncc(Br)c(Nc2ccc3nccnc3c2P(C)(C)=O)n1 , state its recorded GI50.
5.56

Given COc1cc(N2CCN(CC3CC3)CC2)c(-c2cnn(C)c2)cc1Nc1ncc(Br)c(Nc2ccc3cncnc3c2P(C)(C)=O)n1 , state its recorded GI50.
5.45

Given CCN1CCN(c2cc(OC)c(Nc3ncc(Br)c(Nc4ccc5nccnc5c4P(C)(C)=O)n3)cc2-c2cnn(C)c2)CC1 , state its recorded GI50.
2.33

P. COc1cc(N2CCC(N3CCN(C)CC3)CC2)c(-c2cnn(C)c2)cc1Nc1ncc(Br)c(Nc2cc3c(cc2N(C)S(C)(=O)=O)CC3)n1
Q. COc1cc(N2CCC3(CC2)CN(C)CC(C)O3)c(-c2cnn(C)c2)cc1Nc1ncc(Br)c(Nc2ccc3nccnc3c2P(C)(C)=O)n1 (racemic)
R. COc1cc(N2CCC(C)(N)CC2)c(-c2cnn(C)c2)cc1Nc1ncc(Br)c(Nc2ccc3nccnc3c2P(C)(C)=O)n1
S. COc1cc(N2CCC(OC(C)C)CC2)c(-c2cnn(C)c2)cc1Nc1ncc(Br)c(Nc2ccc3nccnc3c2P(C)(C)=O)n1
rank_up(items): orders items by reported GI50 in ascending numerical order. // format: requested-order list of labels
Q, S, P, R
